- assay.name: in vivo
- condition.context: female, Han Wistar, rat, po, 5 mg/kg
reported.metric: Vd/F (L/kg)
Expressed in L/kg, but write only the number.

Sample answers from the record:
{"columns": ["compound", "reported.metric", "unit.of.measure", "recorded.value"],
 "data": [
  ["[2H]c1cc([2H])c(-c2ccc(NC(=O)C3=C(C(=O)O)CCC3)c(F)c2)c([2H])c1OC([2H])([2H])[2H] [Example 2]", "Vd/F", "L/kg", 0.017],
  ["[2H]C([2H])([2H])Oc1cccc(-c2ccc(NC(=O)C3=C(C(=O)O)CCC3)c(F)c2)c1 [Example 1]", "Vd/F", "L/kg", 0.016]
]}

Now take the following compound into account.
Incoming: Which value of Vd/F has been reported for COc1cccc(-c2ccc(NC(=O)C3=C(C(=O)O)CCC3)c(F)c2)c1 [Example C26, vidofludimus, reference compound] in the records?
Outgoing: 0.016

---

Measured AUC(0-t), listed per entry for reference.
- assay.name: in vivo
- condition.context: female, Han Wistar, rat, po, 5 mg/kg
Write it as a number; the unit µg·h/mL goes unstated.

Below: 2 compounds and their reported AUC(0-t).
{"columns": ["compound", "AUC(0-t) (µg·h/mL)"],
 "data": [
  ["[2H]c1cc([2H])c(-c2ccc(NC(=O)C3=C(C(=O)O)CCC3)c(F)c2)c([2H])c1OC([2H])([2H])[2H]", 269],
  ["COc1cccc(-c2ccc(NC(=O)C3=C(C(=O)O)CCC3)c(F)c2)c1 [Example C26, vidofludimus, reference compound]", 253]
]}

Turning now to a further record.
Incoming: Field request: AUC(0-t) | item: [2H]C([2H])([2H])Oc1cccc(-c2ccc(NC(=O)C3=C(C(=O)O)CCC3)c(F)c2)c1
Outgoing: 249

---

- assay.name: in vivo
- condition.context: female, Han Wistar, rat, iv, 1 mg/kg
reported.metric: C0 (ng/mL)
A number alone suffices; assume ng/mL.

{"columns": ["molecule", "reported.metric", "recorded.value"],
 "data": [
  ["COc1cccc(-c2ccc(NC(=O)C3=C(C(=O)O)CCC3)c(F)c2)c1 [Example C26, vidofludimus, reference compound]", "C0", 8130],
  ["[2H]C([2H])([2H])Oc1cccc(-c2ccc(NC(=O)C3=C(C(=O)O)CCC3)c(F)c2)c1", "C0", 7010]
]}

Incoming: // C0 lookup, key: [2H]c1cc([2H])c(-c2ccc(NC(=O)C3=C(C(=O)O)CCC3)c(F)c2)c([2H])c1OC([2H])([2H])[2H]
Outgoing: 7980

---

- assay.name: in vivo
- condition.context: female, Han Wistar, rat, po, 5 mg/kg
Entries and their measured Cmax follow.

See these solved cases before continuing.
{"columns": ["molecule", "recorded.value"],
 "data": [
  ["COc1cccc(-c2ccc(NC(=O)C3=C(C(=O)O)CCC3)c(F)c2)c1 [Example C26, vidofludimus, reference compound]", "21300 ng/mL"],
  ["[2H]C([2H])([2H])Oc1cccc(-c2ccc(NC(=O)C3=C(C(=O)O)CCC3)c(F)c2)c1", "19700 ng/mL"]
]}

# evaluate next
Incoming: May I ask what Cmax has been recorded for [2H]c1cc([2H])c(-c2ccc(NC(=O)C3=C(C(=O)O)CCC3)c(F)c2)c([2H])c1OC([2H])([2H])[2H] ?
Outgoing: 21300 ng/mL

---

- assay.name: in vivo
- condition.context: male, CC7BL/6J, mouse, po, 5 mg/kg
Measured AUC of individual entries

{"columns": ["molecule", "recorded.value"],
 "data": [
  ["COc1cccc(-c2ccc(NC(=O)C3=C(C(=O)O)CCC3)c(F)c2)c1 [Example C26, vidofludimus, reference compound]", "1620 ng·h/mL"]
]}

Incoming: Consider the molecule [2H]C([2H])([2H])Oc1cccc(-c2ccc(NC(=O)C3=C(C(=O)O)CCC3)c(F)c2)c1 and give its measured AUC.
Outgoing: 5110 ng·h/mL
